System: COLO 205 colon
ASSAY_METHOD_TEXT: NCI tumour cell line growth inhibition, 48 h
VALUE_KIND: TGI

Recorded results for 5 compounds are shown here.
CSC1=N/C(=C\c2cccs2)C(=O)N1CN1CCCCC1; > 100 µM
COc1ccc2oc(=N)c(C(N)=S)cc2c1; > 100 µM
O=C(O)C(/C=C/c1ccco1)=N\Nc1nc(-c2ccc(Cl)cc2)cs1; 45.8 µM
Nc1cc(N)c2nc(-c3ccccc3)c(Nc3ccc(F)cc3)nc2c1; 55.9 µM
Nc1nc(-n2cccn2)nc(-n2cccn2)c1Br; > 100 µM

Now turn to the next compound.
Check the records and state TGI for `Nc1ccc(N=Nc2ccc(/C=C/c3ccc(N=Nc4ccc(N)c5ccc(S(=O)(=O)O)cc45)cc3S(=O)(=O)O)c(S(=O)(=O)O)c2)c2cc(S(=O)(=O)O)ccc12` > 100 µM
